Each recorded value in this set is attributed to patent US20140086935A1.

# test_target: rat TIMP-1 (rat, UniProt P30120 24-217)
# Sequence (P30120 24-217 limits assumed): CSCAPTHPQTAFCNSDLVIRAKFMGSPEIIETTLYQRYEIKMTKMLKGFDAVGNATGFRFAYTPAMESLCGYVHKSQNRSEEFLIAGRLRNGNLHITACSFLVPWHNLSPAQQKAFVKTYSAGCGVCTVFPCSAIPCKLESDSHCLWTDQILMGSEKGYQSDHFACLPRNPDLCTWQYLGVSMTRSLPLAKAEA
# test_summary: cell-based or functional assay
List of IC50 in rat protease assay values.
assay_readout: IC50 in rat protease assay (nM)

>  <binder>
MS-BW-17 (Fab, V domains shown, Fab, FLAG + Strep-tag II; not tied by name) VH: QVQLVQSGAEVKKPGESLKISCKGSGYSFTSYWIGWVRQMPGKGLEWMGIIYPGDSDTRYSPSFQGQVTISADKSISTAYLQWSSLKASDTAMYYCARLTNYFDSIYYDHWGQGTLVTVSS VL: DIALTQPASVSGSPGQSITISCTGTSSDVGGYNYVSWYQQHPGKAPKLMIYDVSNRPSGVSNRFSGSKSGNTASLTISGLQAEDEADYYCQSYDPSHPSKVFGGGTKLTVLG

>  <measurement>
11

$$$$
>  <binder>
MS-BW-17-3 (Fab, V domains shown, Fab from LCDR3 optimization of MS-BW-17) VH: QVQLVQSGAEVKKPGESLKISCKGSGYSFTSYWIGWVRQMPGKGLEWMGIIYPGDSDTRYSPSFQGQVTISADKSISTAYLQWSSLKASDTAMYYCARLTNYFDSIYYDHWGQGTLVTVSS VL: DIALTQPASVSGSPGQSITISCTGTSSDVGGYNYVSWYQQHPGKAPKLMIYDVSNRPSGVSNRFSGSKSGNTASLTISGLQAEDEADYYCQSFTVSPGADVFGGGTKLTVLG

>  <measurement>
3

$$$$
>  <binder>
MS-BW-17-1 (Fab, V domains shown, Fab from LCDR3 optimization of MS-BW-17; also called MS-BW-17-1 Fab; BW-17-1 Fab) VH: QVQLVQSGAEVKKPGESLKISCKGSGYSFTSYWIGWVRQMPGKGLEWMGIIYPGDSDTRYSPSFQGQVTISADKSISTAYLQWSSLKASDTAMYYCARLTNYFDSIYYDHWGQGTLVTVSS VL: DIALTQPASVSGSPGQSITISCTGTSSDVGGYNYVSWYQQHPGKAPKLMIYDVSNRPSGVSNRFSGSKSGNTASLTISGLQAEDEADYYCQAFDVAPNGKVFGGGTKLTVLG

>  <measurement>
1.6

$$$$
>  <binder>
MS-BW-54-1 (Fab, V domains shown, Fab from LCDR1, -2, -3 optimization of MS-BW-54) VH: QVQLVQSGAEVKKPGESLKISCKGSGYSFTSYWIGWVRQMPGKGLEWMGIIYPGDSDTRYSPSFQGQVTISADKSISTAYLQWSSLKASDTAMYYCARYYGFEYDLLFDNWGQGTLVTVSS VL: DIALTQPASVSGSPGQSITISCTGTSSDLGGYNYVSWYQQHPGKAPKLMIYAGNNRPSGVSNRFSGSKSGNTASLTISGLQAEDEADYYCQAYDSSGYPVFGGGTKLTVLG

>  <measurement>
3

$$$$
